Origin of measurements: patent US9873719B2

Tested on: Eschericha coli (ATCC 25922), Staphylococcus aureus (ATCC 25923, 29213, and 19636), and Pseudomonas aeruginosa (ATCC 27853 and 9027)
Assay: Salt resistance test: antibacterial activity assay (NCCLS microdilution, MIC90)
Assay type: cell-based
Details: at MHB medium or the high-salt condition; FIG. 1a/1b
Square brackets hold non-standard residues; d marks the D form. Peptide text beside a SMILES is read from it. 2Nal = N[C@@H](Cc1ccc2ccccc2c1)C(=O)O
quantity.name: antimicrobial activity

INSERT INTO measurements (compound, quantity_name, result) VALUES
  ('CC(=O)N[C@@H](CCCCN)C(=O)N[C@@H](Cc1c[nH]c2ccccc12)C(=O)N[C@@H](Cc1c[nH]c2ccccc12)C(=O)N[C@@H](CCCCN)C(=O)N[C@@H](Cc1ccccc1)C(=O)N[C@@H](Cc1ccc2ccccc2c1)C(N)=O [Peptide S2-F-Nal, KWWK-F-Nal] (Ac-KWWKF[2Nal]-NH2; C-terminus assumed)', 'antimicrobial activity', 'diminished'),
  ('CC(=O)N[C@@H](CCCCN)C(=O)N[C@@H](Cc1c[nH]c2ccccc12)C(=O)N[C@@H](Cc1c[nH]c2ccccc12)C(=O)N[C@@H](CCCCN)C(=O)N[C@@H](Cc1ccc2ccccc2c1)C(N)=O [Peptide S2-Nal, KWWK-Nal] (Ac-KWWK[2Nal]-NH2; C-terminus assumed)', 'antimicrobial activity', 'diminished'),
  ('CC(=O)N[C@@H](CCCCN)C(=O)N[C@@H](CCCCN)C(=O)N[C@@H](Cc1ccc2ccccc2c1)C(=O)N[C@@H](CCCNC(=N)N)C(=O)N[C@@H](CCCCN)C(=O)N[C@@H](Cc1ccc2ccccc2c1)C(=O)N[C@@H](CC(C)C)C(=O)N[C@@H](C)C(=O)N[C@@H](CCCCN)C(=O)N[C@@H](CCCCN)C(N)=O [Nal-S1, KK-Nal-RK-Nal-LAKK] (Ac-KK[2Nal]RK[2Nal]LAKK-NH2; C-terminus assumed)', 'antimicrobial activity', 'diminished'),
  ('CC(=O)N[C@@H](CCCCN)C(=O)N[C@@H](Cc1c[nH]c2ccccc12)C(=O)N[C@@H](Cc1c[nH]c2ccccc12)C(=O)N[C@@H](CCCCN)C(=O)N[C@@H](Cc1ccc2ccccc2c1)C(=O)N[C@@H](Cc1ccc2ccccc2c1)C(N)=O [Peptide S2-Nal-Nal, KWWK-Nal-Nal] (Ac-KWWK[2Nal][2Nal]-NH2; C-terminus assumed)', 'antimicrobial activity', 'diminished');

---

Test system: Eschericha coli (ATCC 25922), Staphylococcus aureus (ATCC 25923, 29213, and 19636), and Pseudomonas aeruginosa (ATCC 27853 and 9027)
Test: Salt resistance test: antibacterial activity assay (NCCLS microdilution, MIC90)
Assay type: cell-based
Settings: MHB medium or the high-salt condition; comparison in words
Square brackets hold non-standard residues; d marks the D form. Peptide text beside a SMILES is read from it. 2Nal = N[C@@H](Cc1ccc2ccccc2c1)C(=O)O
quantity.name: antimicrobial activity compared with reference peptide (S1 or S2-Nal)

INSERT INTO assay_data (compound, result) VALUES
  ('CC(=O)N[C@@H](CCCCN)C(=O)N[C@@H](CCCCN)C(=O)N[C@@H](Cc1c[nH]c2ccccc12)C(=O)N[C@@H](CCCNC(=N)N)C(=O)N[C@@H](CCCCN)C(=O)N[C@@H](Cc1c[nH]c2ccccc12)C(=O)N[C@@H](CC(C)C)C(=O)N[C@@H](C)C(=O)N[C@@H](CCCCN)C(=O)N[C@@H](CCCCN)C(=O)N[C@@H](Cc1ccc2ccccc2c1)C(N)=O [Peptide S1-Nal, KKWRKWLAKK-Nal] (Ac-KKWRKWLAKK[2Nal]-NH2; C-terminus assumed)', 'better than S1'),
  ('CC(=O)N[C@@H](CCCCN)C(=O)N[C@@H](CCCCN)C(=O)N[C@@H](Cc1c[nH]c2ccccc12)C(=O)N[C@@H](CCCNC(=N)N)C(=O)N[C@@H](CCCCN)C(=O)N[C@@H](Cc1c[nH]c2ccccc12)C(=O)N[C@@H](CC(C)C)C(=O)N[C@@H](C)C(=O)N[C@@H](CCCCN)C(=O)N[C@@H](CCCCN)C(=O)N[C@@H](Cc1ccc2ccccc2c1)C(=O)N[C@@H](Cc1ccc2ccccc2c1)C(N)=O [Peptide S1-Nal-Nal, KKWRKWLAKK-Nal-Nal] (Ac-KKWRKWLAKK[2Nal][2Nal]-NH2; C-terminus assumed)', 'better than S1');
